Target: BcChi-A (Gemmabryum coronatum, UniProt A9ZSX9, W126A)
Construct: recombinant, pET-22b in E. coli BL21(DE3); purified from cell lysate by acid treatment, Q-Sepharose, Sephacryl S-100; no tag mentioned; 15N-labelled for NMR; catalytic domain, loopless GH19
Sequence (A9ZSX9 entry or part of it W126A): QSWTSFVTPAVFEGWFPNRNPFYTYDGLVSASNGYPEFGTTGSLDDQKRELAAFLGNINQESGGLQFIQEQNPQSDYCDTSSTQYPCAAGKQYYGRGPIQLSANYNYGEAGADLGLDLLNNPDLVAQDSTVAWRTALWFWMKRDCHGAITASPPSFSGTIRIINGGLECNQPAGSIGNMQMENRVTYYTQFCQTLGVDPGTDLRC
Experiment: 1H-15N HSQC NMR titration, Asn20 chemical shift
Conditions: 50 mM sodium acetate pH 5.0, 90% H2O/10% D2O, 300 K; 0.2 mM 15N protein
pKd: −log10 of the molar value.
REPORTED ENDPOINT: pKd

compound="CC(=O)N[C@H]1[C@H](O[C@H]2[C@H](O)[C@@H](NC(C)=O)C(O)O[C@@H]2CO)O[C@H](CO)[C@@H](O)[C@@H]1O (stereo partly shown) [(GlcNAc)2]" assay_value=1.62

Reference source: paper PMC7844276
